Listed below: GI50 values for each entry.
Tested on: HOP-62
Assay: NCI tumour cell line growth inhibition, 48 h
Activity calls are given as the source filed them. Cut-off read from the data, not from the text of the source: active = GI50 up to about 1.1 µM and inactive = higher.

Examples with their reported GI50 follow.
[[record]]
molecule = "COc1ccc(C(=O)/C=C/c2ccc(O)c(O)c2)c(OC)c1"
system_name = "HOP-62"
measured_result = "4.32 µM (inactive)"

[[record]]
molecule = "S=C(/N=c1/sc(Nc2ccccc2)nc2sc3c(c12)CCCC3)Nc1ccccc1"
system_name = "HOP-62"
measured_result = "> 62.5 µM (inactive)"

[[record]]
molecule = "CN(O)C(=O)CCC(NC(=O)CCC(N)C(=O)O)C(=O)NCC(=O)O (centres undefined)"
system_name = "HOP-62"
measured_result = "> 100 µM (inactive)"

[[record]]
molecule = "S=C1NCCN1C(=S)NC1CCCCC1"
system_name = "HOP-62"
measured_result = "37.6 µM (inactive)"

[[record]]
molecule = "COC(=O)c1c2c(cc3c1CC1(Cc4ccccc4C1=O)C3)CCC2 (centres undefined)"
system_name = "HOP-62"
measured_result = "42.8 µM (inactive)"

[[record]]
molecule = "O=C(CC1(O)C(=O)Nc2c(Cl)ccc(Cl)c21)c1ccc(Cl)cc1 (centres undefined)"
system_name = "HOP-62"
measured_result = "32 µM (inactive)"

[[record]]
molecule = "CC(C)CC(CNC(Cc1ccc(Cl)cc1)C(N)=O)NC(=O)C(Cc1c[nH]cn1)NC(=O)CNC(=O)C(NC(=O)C(C)NC(=O)C(Cc1c[nH]c2ccccc12)NC(=O)C(CCC(=O)O)NC(=O)C(N)Cc1ccccc1)C(C)C (centres undefined)"
system_name = "HOP-62"
measured_result = "> 133 µM (inactive)"

[[record]]
molecule = "OCc1cccc(Nc2nc(O)c3[nH]cnc3n2)c1"
system_name = "HOP-62"
measured_result = "> 100 µM (inactive)"


As a next step, examine the molecule that follows.
Exam item: Item COc1cc(C2S/C(=C/c3ccccc3)C(=O)N2c2ccccc2Cl)cc(OC)c1OC (centres undefined) has what recorded GI50?
Marked response: 31.3 µM (inactive)
